ASSAY_TEXT: yeast display, Sf9 membrane polyspecificity reagent, FACS + sequencing; frameworks hold sequencing errors
RECORDED_METRIC: polyreactivity (PSR sort gate)

{"RESIDUES": "QVQLVESGGGLVQAGGSLRLSCAASGITFNRYAMGWYRQAPGKERELVATISYRGGSTSYADSVKGRFTISRDNAKNTVYLQMNSLKPEDTAVYYCATDEGYVLFKYYSWGQGTQVTVSS", "RECORDED_METRIC": "polyreactivity (PSR sort gate)", "RESULT": "low polyreactivity"}
{"RESIDUES": "QVHLVESGGGLVQAGGSLRLSCAASGRTFDINAMGWYRQAPGKERELVAAISSRGGTTFYADSVKGRFTISRDHAKNTVYLQMNSLKPEDTAVYYCAAEYSSYYTRGGSYNYWGQGTQVTVSS", "RECORDED_METRIC": "polyreactivity (PSR sort gate)", "RESULT": "low polyreactivity"}
{"RESIDUES": "QVQLVESGGGLVQAGASLRLSCAASGSIFIYYAMGWYRQAPGKERELVAAISGGGRTNYADSVKGRFTISRDNAKNTVYLQMNSLKPEDTAVYYCAADPVYWYSTMDFWGQGTQVTVSS", "RECORDED_METRIC": "polyreactivity (PSR sort gate)", "RESULT": "low polyreactivity"}
